# Organism: Homo sapiens
# protocol.summary: Selectivity ratio of pIC50 for human nAChR alpha3/beta4 receptor to pIC50 for human nAChR alpha4/beta2 receptor
measurement.name: Ratio pIC50
Format: numeric value only, no unit, no commentary.

[[record]]
compound = "CC1CC(=O)N(c2ccccc2C(=O)OCC2CCCN(CCCC3CCCCC3)C2)C1=O (centres undefined)"
measured_value = -0.14

[[record]]
compound = "c1ccc(CCCN2CCCC(COCc3ccccc3-c3ccccc3)C2)cc1 (centres undefined)"
measured_value = 0.09

[[record]]
compound = "C[C@H]1CC(=O)N(c2ccccc2C(=O)OC[C@H]2CCCN(CCCc3ccccc3)C2)C1=O"
measured_value = 0.02


Next up:
Q. May I ask what Ratio pIC50 has been recorded for O=C(OCC1CCCN(CCCc2ccccc2)C1)c1ccccc1Cl (single isomer, unassigned) ?
A. 0.39
